Would you kindly list pH of salivary sediment for each of these compounds?
system: human salivary sediment; test: pH response of salivary sediment incubated with individual amino acids, with or without 28 mM urea; assay type: cell-based; settings: 9 mM amino acid + 28 mM urea, 4 hours, 37° C.
Give the value as a plain number.

Exercise: Find the recorded pH of salivary sediment belonging to N[C@@H](CC(=O)O)C(=O)O [aspartic acid] and report it.
Key: 8.90

Exercise: Find the recorded pH of salivary sediment belonging to N[C@@H](CSSC[C@H](N)C(=O)O)C(=O)O [cystine] and report it.
Key: 8.80

Exercise: Find the recorded pH of salivary sediment belonging to N[C@@H](CS)C(=O)O [cysteine] and report it.
Key: 8.75

Exercise: Find the recorded pH of salivary sediment belonging to C[C@@H](O)[C@H](N)C(=O)O [threonine] and report it.
Key: 8.90

Exercise: Find the recorded pH of salivary sediment belonging to N[C@@H](Cc1ccccc1)C(=O)O [phenylalanine] and report it.
Key: 8.87

Exercise: Find the recorded pH of salivary sediment belonging to N[C@@H](CCC(=O)O)C(=O)O [glutamic acid] and report it.
Key: 8.90
